Target: human PD-1 / PD-L1-Ig binding on Jurkat cell line over-expressing human PD-1 (Jurkat-PD-1) (Homo sapiens)
Construct: expressed in transfected cells; host or cells: Jurkat
Sequence (Q15116 25-288): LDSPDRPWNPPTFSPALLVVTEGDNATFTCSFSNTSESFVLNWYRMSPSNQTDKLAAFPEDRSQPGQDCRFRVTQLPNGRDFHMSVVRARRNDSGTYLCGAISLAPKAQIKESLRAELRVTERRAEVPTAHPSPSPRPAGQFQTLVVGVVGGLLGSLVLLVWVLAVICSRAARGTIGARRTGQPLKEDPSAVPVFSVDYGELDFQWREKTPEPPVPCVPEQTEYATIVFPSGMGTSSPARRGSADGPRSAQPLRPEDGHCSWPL
Assay: Jurkat-PD-1 Cell Binding High-Content Screening Assay (CBA)
Type: cell-based
Conditions: Jurkat-PD-1 cells, PE-labeled PD-L1-Ig 20 nM final; read-out: Jurkat HPD1_PDL1 IC50
Method: Example 3. Jurkat-PD-1 Cell Binding High-Content Screening Assay (CBA) Jurkat-PD-1 Cell Binding High-Content Screening Assay (CBA). Phycoerythrin (PE) was covalently linked to the Ig epitope tag of human PD-L1-Ig and fluorescently-labeled PD-L1-Ig was used for binding studies with a Jurkat cell line over-expressing human PD-1 (Jurkat-PD-1). Briefly, 8×10^3 Jurkat-hPD-1 cells were seeded into 384 well plates in 20 μl of DMEM supplemented with 10% fetal calf serum. […]
Where a SMILES comes first, the peptide text is derived from it. Bridges are numbered along the chain shown (N, C = ends). [ ]: non-standard residue; d: D form. ξ: configuration not given here. Bip = N[C@@H](Cc1ccc(-c2ccccc2)cc1)C(=O)O; Phe(3-Me) = Cc1cccc(C[C@H](N)C(=O)O)c1; ξW = NC(Cc1c[nH]c2ccccc12)C(=O)O; 4Pal = N[C@@H](Cc1ccncc1)C(=O)O; Cit = NC(=O)NCCC[C@H](N)C(=O)O; Orn = NCCC[C@H](N)C(=O)O; Dab = NCC[C@H](N)C(=O)O; Dap = NC[C@H](N)C(=O)O
Value Kind: log10(IC50) (log10 of the value in nM)
On a log10 scale: recorded IC50, unit nM.

Known log10(IC50) results, listed for orientation:
COc1cccc(C[C@@H]2NC(=O)[C@H](CC(=O)O)NC(=O)[C@H](Cc3ccc(OCC(=O)O)cc3)NC(=O)[C@H](Cc3ccncc3)NC(=O)CSC[C@@H](C(=O)N[C@@H](C)C(N)=O)NC(=O)[C@H]([C@@H](C)O)NC(=O)[C@H](C(C)C)NC(=O)[C@H](CC3CCCCC3)NC(=O)[C@H](CCN)NC(=O)[C@@H](CC(C)C)NC(=O)[C@H](CCCN)NC(=O)[C@H](CCC(=O)O)NC(=O)[C@H](Cc3ccc(-c4ccccc4)cc3)NC(=O)[C@H](C(C)C)NC2=O)c1 : 1.02
CC(C)C[C@@H]1NC(=O)[C@H](CCCCN)NC(=O)[C@@H](CC(C)C)NC(=O)[C@H](CCCN)NC(=O)[C@H](CCCNC(=N)N)NC(=O)[C@H](Cc2ccc(-c3ccccc3)cc2)NC(=O)[C@H](C(C)C)NC(=O)[C@H](Cc2c[nH]c3ccccc23)NC(=O)[C@H](CC(=O)O)NC(=O)[C@H](Cc2ccc(O)cc2)NC(=O)[C@H](CC(N)=O)NC(=O)CSC[C@@H](C(=O)N[C@@H](C)C(N)=O)NC(=O)[C@H]([C@@H](C)O)NC(=O)[C@H](C(C)C)NC1=O [Compound 1030] ({CH2CO}-NYDWV[Bip]R[Orn][dL]KLVTCA-NH2; thioether N-14) : 1.03
CC(C)C[C@@H]1NC(=O)C(Cc2c[nH]c3ccccc23)NC(=O)[C@H](CC(=O)O)NC(=O)[C@H](Cc2ccc(O)cc2)NC(=O)[C@H](Cc2ccccc2)NC(=O)CSC[C@@H](C(=O)NCC(N)=O)NC(=O)[C@H]([C@@H](C)O)NC(=O)[C@H](C(C)C)NC(=O)[C@H](CC(C)C)NC(=O)[C@H](CC(N)=O)NC(=O)[C@@H](CC(C)C)NC(=O)[C@H](CCN)NC(=O)[C@H](C(C)C)NC(=O)[C@H](Cc2ccc(-c3ccccc3)cc2)NC1=O (stereo partly drawn) [Compound 1215] ({CH2CO}-FYD[ξW]L[Bip]V[Dab][dL]NLVTCG-NH2; thioether N-14) : 1.67
CC(C)C[C@H]1NC(=O)[C@H](CCCN)NC(=O)[C@H](CCN)NC(=O)[C@H](Cc2ccc(-c3ccccc3)cc2)NC(=O)[C@H](C(C)C)NC(=O)[C@H](Cc2c[nH]c3ccccc23)NC(=O)[C@H](CC(=O)O)NC(=O)[C@H](Cc2ccncc2)NC(=O)[C@H](CN)NC(=O)CSC[C@@H](C(=O)N[C@@H](C)C(N)=O)NC(=O)[C@H]([C@@H](C)O)NC(=O)[C@H](C(C)C)NC(=O)[C@H](CC2CCCCC2)NC(=O)[C@H](CCN)NC1=O : 1.40
CC(C)C[C@@H]1NC(=O)[C@H](CCN)NC(=O)[C@@H](CC(C)C)NC(=O)[C@H](CCCCN)NC(=O)[C@H](CCCNC(N)=O)NC(=O)[C@H](Cc2ccc(-c3ccccc3)cc2)NC(=O)[C@H](C(C)C)NC(=O)[C@H](Cc2c[nH]c3ccccc23)NC(=O)[C@H](CC(=O)O)NC(=O)[C@H](Cc2ccc(O)cc2)NC(=O)[C@H](CC(N)=O)NC(=O)CSC[C@@H](C(=O)NCC(N)=O)NC(=O)[C@H]([C@@H](C)O)NC(=O)[C@H](C(C)C)NC1=O [Compound 1116] ({CH2CO}-NYDWV[Bip][Cit]K[dL][Dab]LVTCG-NH2; thioether N-14) : 1.59
CC(C)C[C@H]1NC(=O)[C@H](CCCN)NC(=O)[C@H](CCC(=O)O)NC(=O)[C@H](Cc2ccc(-c3ccccc3)cc2)NC(=O)[C@H](C(C)C)NC(=O)[C@H](Cc2c[nH]c3ccccc23)NC(=O)[C@H](CC(=O)O)NC(=O)[C@H](Cc2ccc(C#N)cc2)NC(=O)[C@H](Cc2ccc(OCC(=O)O)cc2)NC(=O)CSC[C@@H](C(=O)N[C@@H](C)C(N)=O)NC(=O)[C@H]([C@@H](C)O)NC(=O)[C@H](C(C)C)NC(=O)[C@H](CC2CCCCC2)NC(=O)[C@H](CCN)NC1=O : 1.38
CC[C@H](C)[C@@H]1NC(=O)[C@H](Cc2ccc(-c3ccccc3)cc2)NC(=O)[C@H](C(C)C)NC(=O)[C@H](Cc2cccc(C)c2)NC(=O)[C@H](CC(=O)O)NC(=O)[C@H](Cc2ccncc2)NC(=O)[C@H](CN)NC(=O)CSC[C@@H](C(N)=O)NC(=O)[C@H]([C@@H](C)O)NC(=O)[C@H](C(C)C)NC(=O)[C@H](CC(C)C)NC(=O)[C@H](CCN)NC(=O)[C@@H](CC(C)C)NC(=O)[C@H](CCCN)NC1=O [Compound 1554] ({CH2CO}-[Dap][4Pal]D[Phe(3-Me)]V[Bip]I[Orn][dL][Dab]LVTC-NH2; thioether N-14) : 1.98

We next turn to a different compound, shown below.
Form field: reported log10(IC50) of `CC[C@H](C)[C@@H]1NC(=O)[C@H](Cc2ccc(-c3ccccc3)cc2)NC(=O)[C@H](C(C)C)NC(=O)[C@H](Cc2c[nH]c3ccccc23)NC(=O)[C@H](CC(=O)O)NC(=O)[C@H](Cc2ccc(OCC(=O)O)cc2)NC(=O)[C@H](CN)NC(=O)CSC[C@@H](C(=O)N[C@@H](C)C(N)=O)NC(=O)[C@H]([C@@H](C)O)NC(=O)[C@H](C(C)C)NC(=O)[C@H](CC2CCCCC2)NC(=O)[C@H](CCN)NC(=O)[C@@H](CC(C)C)NC(=O)[C@H](CCCN)NC1=O`
0.70
